Tested system: T1, GLP-1 receptor present in the plasma membranes isolated from RINm5F cells (UniProt P32301 22-463, limits assumed)
T1 sequence (looked up): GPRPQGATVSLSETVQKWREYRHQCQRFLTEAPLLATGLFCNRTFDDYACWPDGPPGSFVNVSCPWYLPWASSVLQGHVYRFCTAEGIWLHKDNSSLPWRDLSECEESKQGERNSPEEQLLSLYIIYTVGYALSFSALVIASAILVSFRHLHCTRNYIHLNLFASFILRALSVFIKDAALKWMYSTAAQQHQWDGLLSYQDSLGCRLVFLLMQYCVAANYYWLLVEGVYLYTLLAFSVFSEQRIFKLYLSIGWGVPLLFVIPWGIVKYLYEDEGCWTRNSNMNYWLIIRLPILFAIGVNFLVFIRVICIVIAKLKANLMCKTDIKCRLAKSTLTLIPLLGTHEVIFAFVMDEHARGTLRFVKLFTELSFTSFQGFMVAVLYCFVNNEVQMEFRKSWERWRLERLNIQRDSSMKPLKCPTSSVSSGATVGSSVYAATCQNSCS
Method summary: cell-based or functional assay
Outcome measure: Relative Potency (%), cAMP SPA in RINm5F cells

Query: Please report the recorded Relative Potency (%), cAMP SPA in RINm5F cells for HSQGTFTSDYARYLDARRAKEFIAWLVRGRG [G82] .
Response: 29.9

(A) HSQGTFTSDYARYLDARRAREFIKWLVRGRG [G83]
(B) HSQGTFTSDYARYLDARRAREFIAWLVKGRG [G84]
Query: # compare Relative Potency (%), cAMP SPA in RINm5F cells for A vs B ; return the one with the smaller value When you have decided, please share the label of that item.
Response: A
(A: 29.9%, B: 61.8%)
